MIC values recorded for Streptococcus Group 9960
// return numeric value only (unit: µg/mL, not printed)

// CCC1OC(=O)CC(O)C(C)C(OC2OC(C)C(OC3CC(C)(O)C(O)C(C)O3)C(N(C)C)C2O)C(CC=O)CC(C)C(=O)C=CC(C)=CC1CN=[N+]=[N-] (stereo not shown) : MIC value = 0.25

// CCC1OC(=O)CC(O)C(C)C(OC2OC(C)C(OC3CC(C)(O)C(O)C(C)O3)C(N(C)C)C2O)C(CC=O)CC(C)C(=O)C=CC(C)=CC1CSc1ccccc1 (stereo not shown) : MIC value = 0.125

// CCC1OC(=O)CC(O)C(C)C(OC2OC(C)C(OC3CC(C)(O)C(O)C(C)O3)C(N(C)C)C2O)C(CC=O)CC(C)C(=O)C=CC(C)=CC1CN (stereo not shown) : MIC value = 8

// CCC1OC(=O)CC(O)C(C)C(OC2OC(C)C(OC3CC(C)(O)C(O)C(C)O3)C(N(C)C)C2O)C(CC=O)CC(C)C(=O)C=CC(C)=CC1CNC(=O)Cc1ccccc1 (stereo not shown) : MIC value = 0.5

---

# System: Staphylococcus aureus
# assay_explanation: Antibiotic activity, broth-dilution microtiter test (MIC)
# Format: cell-based
# condition: S. aureus
# Protocol: The MIC's in Table III were determined by standard agar-dilution assays. The MIC's in Table IV were obtained using a conventional broth-dilution microtiter test. Antibiotic Activity of DMT Derivatives^a
readout: MIC (µg/mL)
// return numeric value only (unit: µg/mL, not printed)

// CCC1OC(=O)CC(O)C(C)C(OC2OC(C)C(OC3CC(C)(O)C(O)C(C)O3)C(N(C)C)C2O)C(CC=O)CC(C)C(=O)C=CC(C)=CC1CNC(=O)Cc1ccccc1 (stereo not shown) : MIC value = 1.56

// CCC1OC(=O)CC(O)C(C)C(OC2OC(C)C(OC3CC(C)(O)C(O)C(C)O3)C(N(C)C)C2O)C(CC=O)CC(C)C(=O)C=CC(C)=CC1CN=[N+]=[N-] (stereo not shown) : MIC value = 1.56

// CCC1OC(=O)CC(O)C(C)C(OC2OC(C)C(OC3CC(C)(O)C(O)C(C)O3)C(N(C)C)C2O)C(CC=O)CC(C)C(=O)C=CC(C)=CC1CN (stereo not shown) : MIC value = 6.25

// CCC1OC(=O)CC(O)C(C)C(OC2OC(C)C(OC3CC(C)(O)C(O)C(C)O3)C(N(C)C)C2O)C(CC=O)CC(C)C(=O)C=CC(C)=CC1CSc1ccccc1 (stereo not shown) : MIC value = 0.39

---

MIC values recorded for Pasteurella hemolytica 41D
// return numeric value only (unit: µg/mL, not printed)

MIC of CCC1OC(=O)CC(O)C(C)C(OC2OC(C)C(OC3CC(C)(O)C(O)C(C)O3)C(N(C)C)C2O)C(CC=O)CC(C)C(=O)C=CC(C)=CC1CN (stereo not shown) [Compound 2, 23-Deoxy-23-amino-DMT] , assay on Pasteurella hemolytica 41D, is 12.5

MIC of CCC1OC(=O)CC(O)C(C)C(OC2OC(C)C(OC3CC(C)(O)C(O)C(C)O3)C(N(C)C)C2O)C(CC=O)CC(C)C(=O)C=CC(C)=CC1CN=[N+]=[N-] (stereo not shown) [Compound 1, 23-Deoxy-23-Azido-DMT] , assay on Pasteurella hemolytica 41D, is 25

MIC of CCC1OC(=O)CC(O)C(C)C(OC2OC(C)C(OC3CC(C)(O)C(O)C(C)O3)C(N(C)C)C2O)C(CC=O)CC(C)C(=O)C=CC(C)=CC1CNC(=O)Cc1ccccc1 (stereo not shown) [Compound 3, 23-Deoxy-23-(phenylacetyl)amino-DMT] , assay on Pasteurella hemolytica 41D, is 25

MIC of CCC1OC(=O)CC(O)C(C)C(OC2OC(C)C(OC3CC(C)(O)C(O)C(C)O3)C(N(C)C)C2O)C(CC=O)CC(C)C(=O)C=CC(C)=CC1CSc1ccccc1 (stereo not shown) [Compound 4, 23-Deoxy-23-(phenyl)thio-DMT] , assay on Pasteurella hemolytica 41D, is 12.5

---

# System: Mycoplasma gallisepticum
# assay_explanation: Antibiotic activity, broth-dilution microtiter test (MIC)
# Type: cell-based
# condition: Mycoplasmoides gallisepticum, M. gallisepticum
readout: MIC (µg/mL)
// return numeric value only (unit: µg/mL, not printed)

// CCC1OC(=O)CC(O)C(C)C(OC2OC(C)C(OC3CC(C)(O)C(O)C(C)O3)C(N(C)C)C2O)C(CC=O)CC(C)C(=O)C=CC(C)=CC1CNC(=O)Cc1ccccc1 (stereo not shown) : MIC value = 0.09

// CCC1OC(=O)CC(O)C(C)C(OC2OC(C)C(OC3CC(C)(O)C(O)C(C)O3)C(N(C)C)C2O)C(CC=O)CC(C)C(=O)C=CC(C)=CC1CN (stereo not shown) : MIC value = 1.56

// CCC1OC(=O)CC(O)C(C)C(OC2OC(C)C(OC3CC(C)(O)C(O)C(C)O3)C(N(C)C)C2O)C(CC=O)CC(C)C(=O)C=CC(C)=CC1CN=[N+]=[N-] (stereo not shown) : MIC value = 0.19

---

# Tested on: Streptococcus pyogenes C203
# assay_explanation: ED50 in mice experimentally infected with S. pyogenes C203
# Format: in vivo
# condition: C203, oral, doses given 1 and 4 hours postinfection
readout: ED50

// CCC1OC(=O)CC(O)C(C)C(OC2OC(C)C(OC3CC(C)(O)C(O)C(C)O3)C(N(C)C)C2O)C(CC=O)CC(C)C(=O)C=CC(C)=CC1CSc1ccccc1 (stereo not shown) : ED50 value = 71 mg/kg

// CCC1OC(=O)CC(O)C(C)C(OC2OC(C)C(OC3CC(C)(O)C(O)C(C)O3)C(N(C)C)C2O)C(CC=O)CC(C)C(=O)C=CC(C)=CC1CN (stereo not shown) : ED50 value = > 100 mg/kg

// CCC1OC(=O)CC(O)C(C)C(OC2OC(C)C(OC3CC(C)(O)C(O)C(C)O3)C(N(C)C)C2O)C(CC=O)CC(C)C(=O)C=CC(C)=CC1CNC(=O)Cc1ccccc1 (stereo not shown) : ED50 value = > 100 mg/kg

// CCC1OC(=O)CC(O)C(C)C(OC2OC(C)C(OC3CC(C)(O)C(O)C(C)O3)C(N(C)C)C2O)C(CC=O)CC(C)C(=O)C=CC(C)=CC1CN=[N+]=[N-] (stereo not shown) : ED50 value = 68 mg/kg

---

# System: Staphylococcus epidermidis EPI2
# assay_explanation: Antibiotic activity, standard agar-dilution assay (MIC)
# Format: cell-based
# condition: S. epidermidis EPI2
# Protocol: The MIC's in Table III were determined by standard agar-dilution assays. The MIC's in Table IV were obtained using a conventional broth-dilution microtiter test. Antibiotic Activity of C-23 Modified Derivatives of DMT^a
readout: MIC
Mention the unit after the number when you answer.

MIC of CCC1OC(=O)CC(O)C(C)C(OC2OC(C)C(OC3CC(C)(O)C(O)C(C)O3)C(N(C)C)C2O)C(CC=O)CC(C)C(=O)C=CC(C)=CC1CN (stereo not shown) , assay on Staphylococcus epidermidis EPI2, is 8 µg/mL

MIC of CCC1OC(=O)CC(O)C(C)C(OC2OC(C)C(OC3CC(C)(O)C(O)C(C)O3)C(N(C)C)C2O)C(CC=O)CC(C)C(=O)C=CC(C)=CC1CN=[N+]=[N-] (stereo not shown) , assay on Staphylococcus epidermidis EPI2, is 0.25 µg/mL

MIC of CCC1OC(=O)CC(O)C(C)C(OC2OC(C)C(OC3CC(C)(O)C(O)C(C)O3)C(N(C)C)C2O)C(CC=O)CC(C)C(=O)C=CC(C)=CC1CNC(=O)Cc1ccccc1 (stereo not shown) , assay on Staphylococcus epidermidis EPI2, is 1 µg/mL

MIC of CCC1OC(=O)CC(O)C(C)C(OC2OC(C)C(OC3CC(C)(O)C(O)C(C)O3)C(N(C)C)C2O)C(CC=O)CC(C)C(=O)C=CC(C)=CC1CSc1ccccc1 (stereo not shown) , assay on Staphylococcus epidermidis EPI2, is 0.5 µg/mL

---

Would you mind telling me the reported MIC of each entry?
# Tested on: Haemophilus influenzae Holt
# assay_explanation: Antibiotic activity, standard agar-dilution assay (MIC)
# Assay type: cell-based
# condition: H. influenzae Holt, ampicillin-sensitive strain
// return numeric value only (unit: µg/mL, not printed)

// CCC1OC(=O)CC(O)C(C)C(OC2OC(C)C(OC3CC(C)(O)C(O)C(C)O3)C(N(C)C)C2O)C(CC=O)CC(C)C(=O)C=CC(C)=CC1CNC(=O)Cc1ccccc1 (stereo not shown) [Compound 3, 23-Deoxy-23-(phenylacetyl)amino-DMT] : MIC value = 8

// CCC1OC(=O)CC(O)C(C)C(OC2OC(C)C(OC3CC(C)(O)C(O)C(C)O3)C(N(C)C)C2O)C(CC=O)CC(C)C(=O)C=CC(C)=CC1CN=[N+]=[N-] (stereo not shown) [Compound 1, 23-Deoxy-23-Azido-DMT] : MIC value = 8

// CCC1OC(=O)CC(O)C(C)C(OC2OC(C)C(OC3CC(C)(O)C(O)C(C)O3)C(N(C)C)C2O)C(CC=O)CC(C)C(=O)C=CC(C)=CC1CN (stereo not shown) [Compound 2, 23-Deoxy-23-amino-DMT] : MIC value = 16

// CCC1OC(=O)CC(O)C(C)C(OC2OC(C)C(OC3CC(C)(O)C(O)C(C)O3)C(N(C)C)C2O)C(CC=O)CC(C)C(=O)C=CC(C)=CC1CSc1ccccc1 (stereo not shown) [Compound 4, 23-Deoxy-23-(phenyl)thio-DMT] : MIC value = 4
